system: Fibrinogen (Alexa647-labelled); assay: fibrinogen binders on compound microarrays, profiling panel, artefact control for SMM control-protein annotation, biochemical, small-molecule microarray, 635/667 nm fluorescence (AID 1131); settings: fibrinogen-A647 binding fluorescence, higher = more signal;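 note: z-score merges 667 nm fluorescence with per-spot signal-to-noise over triplicate slides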
Quick rule for you: composite z-score at 0.09 or higher means Yes, lower means No.

The following compounds have reported results that may help.
C#CCCCON=C1C[C@@H](O)[C@@H](O)[C@@H]2[C@@H]3C(=O)N(c4cccc(Oc5ccccc5)c4)C(=O)[C@@H]3CC[C@H]12: No
CC(C)CON=C1C[C@@H](O)[C@@H](O)[C@@H]2[C@@H]3C(=O)N(c4ccc(F)cc4F)C(=O)[C@@H]3CC[C@H]12: Yes
CO[C@H]1COC(=O)CCC[C@@H](C)[C@H](OC)COC(=O)[C@@H](C)NC(=O)CC=C[C@@H]1C: No
CCc1cc2c(nc1CC)CCN(CCC(C)=NOC[C@H]1O[C@H](c3ccccc3)C=C[C@@H]1Oc1ccc(OC)cc1)C2: No

## Task Hi team, for C=COC[C@@H]1CN2[C@@H](CC[C@@H](C)[C@@H]2c2ccc(Br)cc2)C(=O)O1 , is the recorded composite z-score at or above 0.09?
## Result Yes

## Task Test whether the compound C#CCCCON=C1C[C@@H](O)[C@@H](O)[C@@H]2[C@@H]3C(=O)N(CC)C(=O)[C@@H]3CC[C@@H]12 records composite z-score of 0.09 or higher.
## Result No

## Task Check this compound for composite z-score at or above 0.09: COC(=O)[C@H](C)NC(=O)CCC1CC(OC(=O)NCc2cccc3ccccc23)CC2(CCCC(COC(=O)NCC(c3ccccc3)c3ccccc3)O2)O1 (some centres not stated)
## Result Yes

====

assay: CREB reporter modulators under forskolin, primary screen, cell-based, PC12, CRE-LacZ reporter, forskolin-stimulated (AID 1146); conditions: luminescence, 4.5 h, higher = more signal, called active from +8 up or from −8 down;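 note: PC12 cells with 6xCRE LacZ reporter stimulated by forskolin 10 µM; beta-galactosidase reporter signal reflecting CREB driven transcription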
assay-endpoint: z-score
Answers are plain numbers.

CCN1C(=O)[C@H]2[C@H]3[C@H](O)[C@H](O)CC(=NNC(=O)OCc4ccc(OC)cc4)[C@@H]3CC[C@H]2C1=O: -0.523
CCc1cc2c(nc1CC)CCN(CCC(C)=NOC[C@H]1O[C@H](c3ccccc3)C=C[C@@H]1Oc1ccc(OC)cc1)C2: 0.28
CCCCc1nc2c(c3c1C[C@H](C)OC3)CN(CCOc1ccccc1)CC2: -1.03

Batch request: z-score per item, same order as input.
1. CC(C)=CCCC(C)=CCON=C1C[C@@H](O)[C@@H](O)[C@@H]2[C@@H]3C(=O)N(Cc4ccccc4)C(=O)[C@@H]3CC[C@@H]12
2. COC(=O)NCC=Cc1nc(CCCO)co1
3. COc1ccc(O[C@H]2C=C[C@@H](c3ccccc3)O[C@@H]2CON=C(C)CCC(=O)OC[C@H]2O[C@H](c3ccccc3)C=C[C@@H]2Oc2ccc(OC)cc2)cc1
4. CCOC(=O)[C@H](CC(C)C)NC(=O)CCC1CC(OC(=O)NCc2ccc3c(c2)OCO3)CC2(CCCC(COC(=O)NCc3cccc(C(F)(F)F)c3)O2)O1 (some centres not stated)

## Result
1: -0.0093; 2: -0.0562; 3: 0.593; 4: 0.814

====

biological target: Streptavidin (Streptomyces avidinii) (UniProt P22629); assay: streptavidin binders on small-molecule microarray, primary screen, artefact control for SMM compound annotation, biophysical, 635/667 nm fluorescence (AID 1147); conditions: streptavidin binding, higher = more signal;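 note: signal reflects streptavidin binding to arrayed compounds as a control protein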
Sequence (P22629 whole entry, looked up): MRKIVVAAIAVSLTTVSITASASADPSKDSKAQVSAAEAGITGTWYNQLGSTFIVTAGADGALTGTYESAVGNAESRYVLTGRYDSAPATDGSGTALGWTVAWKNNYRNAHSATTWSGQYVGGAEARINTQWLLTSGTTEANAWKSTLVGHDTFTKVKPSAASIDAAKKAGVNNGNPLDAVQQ
I'd appreciate it if you could supply composite z-score values for the items below.
One number for each entry.

Examples from the recorded data:
CC(C)CON=C1C[C@@H](O)[C@@H](O)[C@@H]2[C@@H]3C(=O)N(C[C@@H]4CCCO4)C(=O)[C@@H]3CC[C@@H]12: -0.265
COC(=O)CC=C[C@@H](C)[C@@H](C=NO[C@@H]1O[C@H](COC(C)=O)[C@@H](OC(C)=O)[C@H](OC(C)=O)[C@H]1OC(C)=O)NS(=O)(=O)c1ccc(C)cc1: -0.909
CCCNC(=O)OC[C@H]1O[C@H](CCON=Cc2ccc(C(=O)N3[C@H](c4ccc(C)cc4)[C@@H](C)CC[C@H]3C(=O)OC)cc2)C=C[C@@H]1Oc1ccc(OC)cc1: 0.0335
CCOC(=O)CCN1C(=O)[C@H]2[C@H]3[C@H](O)[C@H](O)CC(=NNC(=O)OCc4ccccc4)[C@@H]3CC[C@H]2C1=O: 0.551
C[C@@H]1CC[C@H]2C(=O)O[C@@H](COc3ccc(C(C)(C)C)cc3)CN2[C@@H]1c1ccc(Br)cc1: -0.259
CON=CC[C@@H]1C=C[C@H](OC(C)=O)[C@@H](COC(C)=O)O1: -0.0091
O=C(NN=C1C[C@@H](O)[C@@H](O)[C@@H]2[C@@H]3C(=O)N(C4CCCCC4)C(=O)[C@@H]3CC[C@@H]12)OCc1ccccc1: -0.225
CCOC(=O)[C@H](Cc1ccccc1)NC(=O)CCC1CC(OC(=O)NCCc2ccc(F)cc2)CC2(CCCC(COC(=O)NCC3CCCCC3)O2)O1 (some centres undefined): 0.644
CCOC(=O)[C@H](CC(C)C)NC(=O)CCC1CC(OC(=O)NCCc2ccc(F)cc2)CC2(CCCC(COC(=O)NCC3CCCCC3)O2)O1 (some centres undefined): 1.42
CC(C)CON=C1C[C@@H](O)[C@@H](O)[C@@H]2[C@@H]3C(=O)N(C(C)(C)C)C(=O)[C@@H]3CC[C@H]12: -0.312

State recorded composite z-score for all listed molecules.
1. O=C1C2=CC[C@H]3C(=O)N(c4cccc(Oc5ccccc5)c4)C(=O)[C@H]3[C@H]2[C@H](O)[C@@H]2O[C@H]12
2. COC(=O)CC=C[C@@H](C)[C@@H](C=NOC[C@@H](O)[C@H]1O[C@@H]2OC(C)(C)O[C@@H]2[C@H]1O)NS(=O)(=O)c1ccc(C)cc1

## Result
[0.284, -0.0169]

Items follow; give composite z-score for each.
1. CCOC(=O)[C@H](Cc1ccccc1)NC(=O)CCC1CC(OC(=O)NCc2cccc3ccccc23)CC2(CCCC(COC(=O)NCCC(C)C)O2)O1 (some centres undefined)
2. CCOC(=O)C1=NO[C@]2(C=C(Br)C3(OCCCO3)[C@H]3O[C@H]32)C1

## Result
[1.8, -0.468]

====

Would you kindly list composite z-score for each of these compounds?
assay: small-molecule binders of probe aInhba, primary screen, biochemical, small-molecule microarray, 635/667 nm fluorescence (AID 1148); conditions: higher = more signal;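 note: score merges 667nm spot fluorescence with signal-to-noise for antibody binding to printed compounds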
Give bare numbers.

Below, 5 compounds whose answers are already recorded.
COC(=O)CC=C[C@@H](C)[C@H](OCc1cccc(-c2ccccc2)c1)C1CCCCC1: -0.176
CO[C@H]1COC(=O)[C@H](C)NC(=O)[C@@H](C)COC(=O)[C@H]2CCCN2C(=O)CC=C[C@H]1C: -0.121
CCCNC(=O)OC[C@H]1O[C@H](c2ccccc2)C=C[C@@H]1Oc1ccc(OC)cc1: -0.0719
CCc1cc2c(nc1CC)CCN(CCC(C)=NO[C@H](C)c1cn([C@H](CO)Cc3ccccc3)nn1)C2: 0.173
CCOC(=O)[C@H](Cc1ccccc1)NC(=O)OC1CC(CCC2CC(CC)=NO2)OC2(CCCC(COC(=O)NCCC(C)C)O2)C1 (stereo partly specified): -0.154

Below is a list of compounds. For each, state its recorded composite z-score.
1. COC(=O)C=CCCc1coc(C=CCNC(=O)OC)n1
2. CO[C@H]1COC(=O)CC=C[C@H](C)[C@@H](OC)COC(=O)[C@@H](C)NC(=O)CC=C[C@@H]1C

## Result
1: 0.432; 2: -0.233

====

assay: binders of probe aHhip on microarray, primary screen, stem cell growth factor project, biochemical, small-molecule microarray, fluorescence 635/667 (AID 1087); details: higher = more signal;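 note: score merges spot fluorescence at 667nm with spot signal to noise ratio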
For each entry below, report its composite z-score value.
Numbers only.

Recorded results for 6 molecules are shown here.
CO[C@@H]1COC(=O)[C@H](CCSC)NC(=O)CC=C[C@@H](C)COC(=O)CCC[C@H]1C: -0.161
COc1ccc(O[C@H]2C=C[C@@H](c3ccccc3)O[C@@H]2COC(=O)CCC(C)=NOC[C@@H](O)[C@H]2O[C@@H]3OC(C)(C)O[C@@H]3[C@H]2O)cc1: -0.0994
CC1O[C@H]2C3=C(C(=O)[C@@H]4O[C@@H]4[C@H]3O)[C@@H]1C1[C@@H](C)OC=C3[C@H](O)C4O[C@@H]4C(=NOCc4ccccc4)[C@]312 (some centres not stated): -0.216
O=C1C2=CC[C@H]3C(=O)N(c4cccc(Oc5ccccc5)c4)C(=O)[C@H]3[C@H]2[C@H](O)[C@@H]2O[C@H]12: -0.184
CC(C)=CCCC(C)=CCON=C1C[C@@H](O)[C@@H](O)[C@@H]2[C@@H]3C(=O)N(C4CCCCC4)C(=O)[C@@H]3CC[C@@H]12: -0.374
CCOC(=O)[C@H](CC(C)C)NC(=O)CCC1CC(OC(=O)NCc2ccc3c(c2)OCO3)CC2(CCCC(COC(=O)NCC3CCCCC3)O2)O1 (some centres not stated): -0.255

## Task Value lookup for composite z-score; key = Cc1ccc(S(=O)(=O)OC[C@H]2CN3[C@H](c4ccc(Br)cc4)[C@@H](C)CC[C@H]3C(=O)O2)cc1
## Result -0.191
